System: Escherichia coli TOP10;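 note: peptides expressed intracellularly from a pBAD plasmid library in pooled LB shake-flask culture, induced with 0.3% L-arabinose, DNA abundance read by NGS, three biological replicates, DESeq2 with apeglm shrinkage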
experiment.notes: shrunken log2 fold change of peptide-encoding DNA abundance (4.5 h post-induction vs induction); higher = less antimicrobial activity (less host growth inhibition)
measurement.parameters: time post-induction: 4.5 h; library: site-saturation at positions 5, 18, 19, 20
parameter: shrunken log2 fold change
Simply state the number, no unit and no words.

{"macromolecule.sequence": "RRIRRRPPRLPRPRPRPLLYPRP", "shrunken log2 fold change": 0.138}
{"macromolecule.sequence": "RRIRERPPRLPRPRPRPSIQPRP", "shrunken log2 fold change": -0.0558}
{"macromolecule.sequence": "RRIRPRPPRLPRPRPRPATAPRP", "shrunken log2 fold change": 0.315}
{"macromolecule.sequence": "RRIRPRPPRLPRPRPRPHGCPRP", "shrunken log2 fold change": 0.0229}
{"macromolecule.sequence": "RRIRRRPPRLPRPRPRPEYPPRP", "shrunken log2 fold change": -0.137}
{"macromolecule.sequence": "RRIRHRPPRLPRPRPRPKKLPRP", "shrunken log2 fold change": -0.104}
{"macromolecule.sequence": "RRIRARPPRLPRPRPRPKHFPRP", "shrunken log2 fold change": 4.03}
{"macromolecule.sequence": "RRIRVRPPRLPRPRPRPPSGPRP", "shrunken log2 fold change": 0.208}
{"macromolecule.sequence": "RRIRDRPPRLPRPRPRPIIWPRP", "shrunken log2 fold change": 0.156}
{"macromolecule.sequence": "RRIRMRPPRLPRPRPRPFIIPRP", "shrunken log2 fold change": -0.268}

Quick note, shrunken log2 fold change for `RRIRQRPPRLPRPRPRPESSPRP` landed at -0.0458

Query `RRIRIRPPRLPRPRPRPMANPRP` yields shrunken log2 fold change of -0.104

Item: `RRIRQRPPRLPRPRPRPDAHPRP` | shrunken log2 fold change: -0.0825

# shrunken log2 fold change of `RRIRLRPPRLPRPRPRPEVDPRP` = -0.0786

Per the records, this sequence ( `RRIRQRPPRLPRPRPRPCLYPRP` ) has shrunken log2 fold change equal to -0.29

Summary for this sequence, `RRIRTRPPRLPRPRPRPLWVPRP` : shrunken log2 fold change is 0.0735

Looking up `RRIRQRPPRLPRPRPRPQGNPRP` , I found its shrunken log2 fold change recorded as 0.00341

Input `RRIRYRPPRLPRPRPRPFYTPRP` . Output shrunken log2 fold change: -1.19

Looking up `RRIRDRPPRLPRPRPRPVCGPRP` , I found its shrunken log2 fold change recorded as 0.979

Quick note, shrunken log2 fold change for `RRIRTRPPRLPRPRPRPEQPPRP` landed at 0.309

Record `RRIRIRPPRLPRPRPRPTNEPRP` , field shrunken log2 fold change: -0.4
